# measurement.target: human DLL1 protein (Acro, Cat. No. DL1-H52H8) (human) (UniProt O00548)
# Sequence (O00548 18-540 limits assumed): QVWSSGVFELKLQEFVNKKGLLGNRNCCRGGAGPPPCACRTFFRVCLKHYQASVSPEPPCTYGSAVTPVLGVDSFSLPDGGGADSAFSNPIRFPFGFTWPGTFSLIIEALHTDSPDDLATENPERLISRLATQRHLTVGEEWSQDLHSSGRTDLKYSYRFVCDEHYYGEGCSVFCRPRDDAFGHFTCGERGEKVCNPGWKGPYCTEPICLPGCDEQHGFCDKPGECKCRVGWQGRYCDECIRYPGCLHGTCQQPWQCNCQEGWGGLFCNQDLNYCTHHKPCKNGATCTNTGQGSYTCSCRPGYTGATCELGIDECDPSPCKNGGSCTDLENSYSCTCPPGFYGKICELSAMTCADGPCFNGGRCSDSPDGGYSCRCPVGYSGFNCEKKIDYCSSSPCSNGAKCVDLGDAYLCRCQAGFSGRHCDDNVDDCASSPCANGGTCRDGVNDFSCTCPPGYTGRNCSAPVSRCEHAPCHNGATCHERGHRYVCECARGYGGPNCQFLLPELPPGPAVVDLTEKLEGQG
# assay.notes: ELISA, coated hDLL1; maximum over 0.1, 1, 10, 100 nM antibody
Measured Emax of OD450 nm binding value by item
# output: bare number, implied unit OD450 nm

Example binders with recorded Emax of OD450 nm binding value:
>>> number("Hab015VL5VH1b-hFc (scFv, part only; not given: VL-VH linker and human IgG1 Fc, V domains shown, not shown: another chain or arm of the molecule; a dimerising Fc or GST; small tags and cut ends) VL: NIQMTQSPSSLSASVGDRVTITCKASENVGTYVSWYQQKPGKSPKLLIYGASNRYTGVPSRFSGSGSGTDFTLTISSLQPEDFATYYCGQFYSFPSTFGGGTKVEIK VH: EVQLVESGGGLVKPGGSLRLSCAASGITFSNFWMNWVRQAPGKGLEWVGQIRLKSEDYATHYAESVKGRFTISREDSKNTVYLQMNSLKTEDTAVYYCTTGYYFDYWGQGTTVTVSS")
0.43
>>> number("Hab015VL5VH5a-hFc (scFv, part only; not given: scFv linker and human IgG1 Fc, V domains shown, not shown: another chain or arm of the molecule; a dimerising Fc or GST; small tags and cut ends) VL: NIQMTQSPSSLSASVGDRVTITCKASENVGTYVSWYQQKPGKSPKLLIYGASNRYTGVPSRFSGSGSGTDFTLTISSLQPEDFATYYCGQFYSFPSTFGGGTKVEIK VH: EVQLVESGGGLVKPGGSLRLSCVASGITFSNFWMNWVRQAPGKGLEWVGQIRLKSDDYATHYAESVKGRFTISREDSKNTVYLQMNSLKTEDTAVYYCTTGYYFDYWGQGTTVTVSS")
0.47

Prompt: Recall and state the measured Emax of OD450 nm binding value for Hab008L3H5-hFc (scFv, part only; not given: scFv linker and human IgG1 Fc, V domains shown, not shown: another chain or arm of the molecule; a dimerising Fc or GST; small tags and cut ends) VL: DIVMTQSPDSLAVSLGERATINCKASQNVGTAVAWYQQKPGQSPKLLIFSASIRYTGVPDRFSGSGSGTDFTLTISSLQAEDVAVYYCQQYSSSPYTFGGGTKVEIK VH: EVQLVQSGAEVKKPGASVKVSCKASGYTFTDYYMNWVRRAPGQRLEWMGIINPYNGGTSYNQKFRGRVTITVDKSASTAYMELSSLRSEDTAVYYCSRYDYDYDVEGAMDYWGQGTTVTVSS .
Completion: 0.11

Prompt: Recall and state the measured Emax of OD450 nm binding value for Hab014VL3VH1-hFc (scFv, part only; not given: VL-VH linker and human IgG1 Fc, V domains shown, not shown: another chain or arm of the molecule; a dimerising Fc or GST; small tags and cut ends) VL: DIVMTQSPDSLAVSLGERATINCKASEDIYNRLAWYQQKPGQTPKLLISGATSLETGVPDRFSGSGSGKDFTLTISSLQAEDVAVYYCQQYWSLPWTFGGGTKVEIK VH: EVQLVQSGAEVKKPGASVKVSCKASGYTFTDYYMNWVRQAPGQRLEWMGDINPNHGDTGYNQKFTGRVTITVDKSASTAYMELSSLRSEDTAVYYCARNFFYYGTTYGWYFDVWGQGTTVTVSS .
Completion: 0.08

Prompt: Recall and state the measured Emax of OD450 nm binding value for Hab008L3H2a-hFc (scFv, part only; not given: VL-VH linker and human IgG1 Fc, V domains shown, not shown: another chain or arm of the molecule; a dimerising Fc or GST; small tags and cut ends) VL: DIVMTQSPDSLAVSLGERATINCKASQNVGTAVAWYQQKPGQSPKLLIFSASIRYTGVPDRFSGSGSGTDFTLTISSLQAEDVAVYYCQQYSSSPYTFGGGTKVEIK VH: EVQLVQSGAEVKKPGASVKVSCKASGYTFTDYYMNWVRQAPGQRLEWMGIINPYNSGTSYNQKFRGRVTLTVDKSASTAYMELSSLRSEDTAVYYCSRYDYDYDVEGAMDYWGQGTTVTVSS .
Completion: 0.04
